Test system: MS751 cells
Assay: MTT cell proliferation assay, MS751 cells
Format: cell-based
Details: MS751 cells (human cervix squamous cell carcinoma metastasis); incubation approximately 64-72 hours; read-out: MTT Assay IC50 MS 751
OUTCOME_MEASURE: IC50

SMILES_REPR: Nc1ccc(/C=C/C(=O)NCc2cc3cc(-c4ccc(C(=O)N5CCC(F)(F)C5)cc4)cc(C(F)(F)F)c3s2)cn1
TESTED_ON: MS751 cells
OUTCOME_MEASURE: IC50
OBSERVED_RESULT: 5000 to 10000 nM
//
SMILES_REPR: Nc1ccc(/C=C/C(=O)NCc2cc3cc(-c4ccc(C(=O)N5CCOCC5)cn4)cc(C(F)(F)F)c3s2)cn1
TESTED_ON: MS751 cells
OUTCOME_MEASURE: IC50
OBSERVED_RESULT: 1000 to 5000 nM
//
SMILES_REPR: Nc1ccc(/C=C/C(=O)NCc2nc3cc(-c4ccc(C(=O)N5CCC(F)(F)CC5)cc4)cc(C(F)(F)F)c3s2)cn1
TESTED_ON: MS751 cells
OUTCOME_MEASURE: IC50
OBSERVED_RESULT: < 1000 nM
//
SMILES_REPR: Nc1ccc(/C=C/C(=O)NCc2cc3cc(-c4ccc(C(=O)N5CC[C@H](F)C5)cc4)cc(C(F)(F)F)c3s2)cn1
TESTED_ON: MS751 cells
OUTCOME_MEASURE: IC50
OBSERVED_RESULT: 1000 to 5000 nM

Please examine the following record next.
Q: Quickly give me recorded IC50 for Nc1ccc(/C=C/C(=O)NCc2cc3cc(-c4ccc(C(=O)N5CCOCC5)cc4)cc(Cl)c3s2)cn1
Ans: < 1000 nM
